Target: T1, TNFR1 (Homo sapiens, UniProt P19438)
T1 chain: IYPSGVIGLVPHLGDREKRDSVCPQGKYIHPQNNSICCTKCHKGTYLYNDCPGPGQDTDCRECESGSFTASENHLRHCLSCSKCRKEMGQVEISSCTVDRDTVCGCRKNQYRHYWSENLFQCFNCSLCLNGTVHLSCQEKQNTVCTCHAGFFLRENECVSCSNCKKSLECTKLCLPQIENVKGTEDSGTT
Assay: yeast display SC50
METRIC: apparent Kd (screen) (nM)
Quick reminder: number only, in nM, skip the unit.

Worked cases, answers included:
[[record]]
binder = "I98S (designed binder) SMEEEVEKAAKEYEKKKKEAIEKHLEKLKAKDKEAAERFLKELEEAAKEYAKDEAKTMSEEEAKRRAKKYKEKVLLSELSEEEQKEIKEAEEKLVRTSLKYVEEAAK"
metric = "apparent Kd (screen)"
result_value = 11.4

[[record]]
binder = "E19W (designed binder) SMEEEVEKAAKEYEKKKKWAIEKHLEKLKAKDKEAAERFLKELEEAAKEYAKDEAKTMSEEEAKRRAKKYKEKVLLSELSEEEQKEIKEAEEKLVRTILKYVEEAAK"
metric = "apparent Kd (screen)"
result_value = 0.539

[[record]]
binder = "S59T (designed binder) SMEEEVEKAAKEYEKKKKEAIEKHLEKLKAKDKEAAERFLKELEEAAKEYAKDEAKTMTEEEAKRRAKKYKEKVLLSELSEEEQKEIKEAEEKLVRTILKYVEEAAK"
metric = "apparent Kd (screen)"
result_value = 1.54


Specify apparent Kd (screen) for Y101N (designed binder) SMEEEVEKAAKEYEKKKKEAIEKHLEKLKAKDKEAAERFLKELEEAAKEYAKDEAKTMSEEEAKRRAKKYKEKVLLSELSEEEQKEIKEAEEKLVRTILKNVEEAAK and stop.
0.446
